# assay target: T1, monovalent hVISTA-ECD (human VISTA extracellular domain with His tail) (human, UniProt Q9H7M9 33-193)
# T1 construct: analyte flowed over captured antibody; also called huVISTA-His
# T1 sequence (Q9H7M9 other isoform, or with tags, fused parts or gaps limits assumed): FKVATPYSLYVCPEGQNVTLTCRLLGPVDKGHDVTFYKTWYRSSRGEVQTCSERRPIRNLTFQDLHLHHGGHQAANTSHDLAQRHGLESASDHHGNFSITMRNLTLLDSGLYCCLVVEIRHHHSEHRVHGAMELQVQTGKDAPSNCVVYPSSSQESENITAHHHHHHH
# experiment: SPR, pH 6.0, average
measured parameter: koff (s⁻¹)
Your answer should be a plain number; it is taken to be in s⁻¹.

**Q:** Indicate the recorded koff value for this binder: P1-070976 (41F11_VH_T28P/Y50W/S55E/D95H/L96E/P97E/Y100E; Vk_A64G) (antibody, human IgG1, kappa, V domains shown, IgG1.3; also called P1-070976-7; acidic pH selective VISTA.4 progeny) VH: QVQLVESGGGLVKPGGSLRLSCAASGFPFSDYYMSWIRQAPGKGLEWVSWISNSGEPIYYADSVKGRFTISRDNAKNSLYLQMNSLRAEDTAVYYCARHEEGWEFDLWGRGTLVTVSS VL: EIVLTQSPATLSLSPGERATLSCRASQSVSSYLAWYQQKPGQAPRLLIYDASNRATGIPARFSGSGSGTDFTLTISSLEPEDFAVYYCQQRNNWPRTFGQGTKVEIKR
**A:** 0.0026

**Q:** Indicate the recorded koff value for this binder: P1-071799 (P1-070976_H95D) (antibody, human IgG1, kappa, V domains shown, IgG1.3) VH: QVQLVESGGGLVKPGGSLRLSCAASGFPFSDYYMSWIRQAPGKGLEWVSWISNSGEPIYYADSVKGRFTISRDNAKNSLYLQMNSLRAEDTAVYYCARDEEGWEFDLWGRGTLVTVSS VL: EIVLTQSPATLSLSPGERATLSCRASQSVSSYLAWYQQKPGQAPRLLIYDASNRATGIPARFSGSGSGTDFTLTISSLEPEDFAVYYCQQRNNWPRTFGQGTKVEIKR
**A:** 0.027

**Q:** Indicate the recorded koff value for this binder: P1-065333 (41F11_VH_T28P/Y50W/S55E/L96E/Y100E VK_A64G) (antibody, human IgG1, kappa, V domains shown, IgG1.3; also called P1-065333-1; VISTA.4 pH-independent progeny) VH: QVQLVESGGGLVKPGGSLRLSCAASGFPFSDYYMSWIRQAPGKGLEWVSWISNSGEPIYYADSVKGRFTISRDNAKNSLYLQMNSLRAEDTAVYYCARDEPGWEFDLWGRGTLVTVSS VL: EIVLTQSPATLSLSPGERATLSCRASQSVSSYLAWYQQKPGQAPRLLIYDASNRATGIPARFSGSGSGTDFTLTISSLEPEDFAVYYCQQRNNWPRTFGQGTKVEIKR
**A:** 0.0015
